assay_method_text: Example 18 cynomolgus monkey PK study (SC and IM)
Type: in vivo, cynomolgus monkeys
measurement_setup: male, cynomolgus monkey, plasma, sc, 20 mg/kg, SC 20 mg/kg equivalent of EFdA; Mean; 0.125 days; read-out: Example 18 plasma concentrations
metric: concentration at 0.125 days (ng/mL)
Entry rule: numbers only, all in ng/mL.

Prompt: I would be grateful if you could share the reported concentration at 0.125 days for C#C[C@]1(COC(=O)CCCCCCCCC)O[C@@H](n2cnc3c(N)nc(F)nc32)C[C@@H]1OC(=O)CCCCCCCCC .
Completion: 3.94

###

assay_method_text: Example 18 cynomolgus monkey PK study (SC and IM)
Format: in vivo, cynomolgus monkeys
measurement_setup: male, cynomolgus monkey, plasma, sc, 20 mg/kg, SC 20 mg/kg equivalent of EFdA; Monkey 1002 (column 3); 0.021 days; read-out: Example 18 plasma concentrations
metric: concentration at 0.021 days (ng/mL)
Entry rule: numbers only, all in ng/mL.

Prompt: I would be grateful if you could share the reported concentration at 0.021 days for C#C[C@]1(COC(=O)CCCCCCCCC)O[C@@H](n2cnc3c(N)nc(F)nc32)C[C@@H]1OC(=O)CCCCCCCCC .
Completion: 0.133

###

assay_method_text: Example 18 cynomolgus monkey PK study (SC and IM)
Format: in vivo, cynomolgus monkeys
measurement_setup: male, cynomolgus monkey, plasma, intramuscular, 20 mg/kg equivalent of EFdA, IM 20 mg/kg equivalent of EFdA; Mean; 8 days; read-out: Example 18 plasma concentrations
metric: concentration at 8 days
Answer format: value, then unit.

Prompt: I would be grateful if you could share the reported concentration at 8 days for C#C[C@]1(COC(=O)CCCCCCCCC)O[C@@H](n2cnc3c(N)nc(F)nc32)C[C@@H]1OC(=O)CCCCCCCCC [Example 18] .
Completion: 0.187 ng/mL

###

assay_method_text: Example 18 cynomolgus monkey PK study (SC and IM)
Type: in vivo, cynomolgus monkeys
measurement_setup: male, cynomolgus monkey, plasma, sc, 20 mg/kg, SC 20 mg/kg equivalent of EFdA; Monkey 1002 (column 3); 3 days; read-out: Example 18 plasma concentrations
metric: concentration at 3 days
Answer format: value, then unit.

Prompt: I would be grateful if you could share the reported concentration at 3 days for C#C[C@]1(COC(=O)CCCCCCCCC)O[C@@H](n2cnc3c(N)nc(F)nc32)C[C@@H]1OC(=O)CCCCCCCCC .
Completion: 0.396 ng/mL

###

assay_method_text: Example 18 cynomolgus monkey PK study (SC and IM)
Type: in vivo, cynomolgus monkeys
measurement_setup: male, cynomolgus monkey, plasma, intramuscular, 20 mg/kg equivalent of EFdA, IM 20 mg/kg equivalent of EFdA; Monkey 2001; 0.021 days; read-out: Example 18 plasma concentrations
metric: concentration at 0.021 days (ng/mL)
Entry rule: numbers only, all in ng/mL.

Prompt: I would be grateful if you could share the reported concentration at 0.021 days for C#C[C@]1(COC(=O)CCCCCCCCC)O[C@@H](n2cnc3c(N)nc(F)nc32)C[C@@H]1OC(=O)CCCCCCCCC .
Completion: 21.8

###

assay_method_text: Example 18 cynomolgus monkey PK study (SC and IM)
Format: in vivo, cynomolgus monkeys
measurement_setup: male, cynomolgus monkey, plasma, intramuscular, 20 mg/kg equivalent of EFdA, IM 20 mg/kg equivalent of EFdA; Mean; 0.021 days; read-out: Example 18 plasma concentrations
metric: concentration at 0.021 days (ng/mL)
Entry rule: numbers only, all in ng/mL.

Prompt: I would be grateful if you could share the reported concentration at 0.021 days for C#C[C@]1(COC(=O)CCCCCCCCC)O[C@@H](n2cnc3c(N)nc(F)nc32)C[C@@H]1OC(=O)CCCCCCCCC .
Completion: 11.9

###

assay_method_text: Example 18 cynomolgus monkey PK study (SC and IM)
Assay type: in vivo, cynomolgus monkeys
measurement_setup: male, cynomolgus monkey, plasma, intramuscular, 20 mg/kg equivalent of EFdA, IM 20 mg/kg equivalent of EFdA; Monkey 2002; 19 days; read-out: Example 18 plasma concentrations
metric: concentration at 19 days (ng/mL)
Entry rule: numbers only, all in ng/mL.

Prompt: I would be grateful if you could share the reported concentration at 19 days for C#C[C@]1(COC(=O)CCCCCCCCC)O[C@@H](n2cnc3c(N)nc(F)nc32)C[C@@H]1OC(=O)CCCCCCCCC .
Completion: 0.149

###

assay_method_text: Example 18 cynomolgus monkey PK study (SC and IM)
Format: in vivo, cynomolgus monkeys
measurement_setup: male, cynomolgus monkey, plasma, sc, 20 mg/kg, SC 20 mg/kg equivalent of EFdA; Monkey 1001; 1 days; read-out: Example 18 plasma concentrations
From the text: Example 18 referenced herein was made in accordance with Synthesis B. Six male cynomolgus monkeys (+1 spare) were selected from the Testing Facility's colony of non-naïve animals. The animals were assigned to the study based on acceptable health as determined by a Testing Facility veterinarian. Six animals were selected and placed into two groups of three animals each. Fasting of the animals before or after dosing was not required. […]
metric: concentration at 1 days (ng/mL)
Entry rule: numbers only, all in ng/mL.

Prompt: I would be grateful if you could share the reported concentration at 1 days for C#C[C@]1(COC(=O)CCCCCCCCC)O[C@@H](n2cnc3c(N)nc(F)nc32)C[C@@H]1OC(=O)CCCCCCCCC [Example 18] .
Completion: 36.5

###

assay_method_text: Example 18 cynomolgus monkey PK study (SC and IM)
Format: in vivo, cynomolgus monkeys
measurement_setup: male, cynomolgus monkey, plasma, intramuscular, 20 mg/kg equivalent of EFdA, IM 20 mg/kg equivalent of EFdA; Mean; 22 days; read-out: Example 18 plasma concentrations
metric: concentration at 22 days
Answer format: value, then unit.

Prompt: I would be grateful if you could share the reported concentration at 22 days for C#C[C@]1(COC(=O)CCCCCCCCC)O[C@@H](n2cnc3c(N)nc(F)nc32)C[C@@H]1OC(=O)CCCCCCCCC .
Completion: 0.13 ng/mL

###

assay_method_text: Example 18 cynomolgus monkey PK study (SC and IM)
Format: in vivo, cynomolgus monkeys
measurement_setup: male, cynomolgus monkey, plasma, sc, 20 mg/kg, SC 20 mg/kg equivalent of EFdA; Monkey 1002; 10 days; read-out: Example 18 plasma concentrations
metric: concentration at 10 days (ng/mL)
Entry rule: numbers only, all in ng/mL.

Prompt: I would be grateful if you could share the reported concentration at 10 days for C#C[C@]1(COC(=O)CCCCCCCCC)O[C@@H](n2cnc3c(N)nc(F)nc32)C[C@@H]1OC(=O)CCCCCCCCC [Example 18] .
Completion: 0.111

###

assay_method_text: Example 18 cynomolgus monkey PK study (SC and IM)
Format: in vivo, cynomolgus monkeys
measurement_setup: male, cynomolgus monkey, plasma, intramuscular, 20 mg/kg equivalent of EFdA, IM 20 mg/kg equivalent of EFdA; Monkey 2003; 0.042 days; read-out: Example 18 plasma concentrations
Description: Example 18 referenced herein was made in accordance with Synthesis B. Six male cynomolgus monkeys (+1 spare) were selected from the Testing Facility's colony of non-naïve animals. The animals were assigned to the study based on acceptable health as determined by a Testing Facility veterinarian. Six animals were selected and placed into two groups of three animals each. Fasting of the animals before or after dosing was not required. […]
metric: concentration at 0.042 days (ng/mL)
Entry rule: numbers only, all in ng/mL.

Prompt: I would be grateful if you could share the reported concentration at 0.042 days for C#C[C@]1(COC(=O)CCCCCCCCC)O[C@@H](n2cnc3c(N)nc(F)nc32)C[C@@H]1OC(=O)CCCCCCCCC [Example 18] .
Completion: 0.79

###

assay_method_text: Example 18 cynomolgus monkey PK study (SC and IM)
Format: in vivo, cynomolgus monkeys
measurement_setup: male, cynomolgus monkey, plasma, sc, 20 mg/kg, SC 20 mg/kg equivalent of EFdA; Mean; 1 days; read-out: Example 18 plasma concentrations
metric: concentration at 1 days
Answer format: value, then unit.

Prompt: I would be grateful if you could share the reported concentration at 1 days for C#C[C@]1(COC(=O)CCCCCCCCC)O[C@@H](n2cnc3c(N)nc(F)nc32)C[C@@H]1OC(=O)CCCCCCCCC .
Completion: 1.12 ng/mL

###

assay_method_text: Example 18 cynomolgus monkey PK study (SC and IM)
Format: in vivo, cynomolgus monkeys
measurement_setup: male, cynomolgus monkey, plasma, intramuscular, 20 mg/kg equivalent of EFdA, IM 20 mg/kg equivalent of EFdA; Monkey 2002; 10 days; read-out: Example 18 plasma concentrations
metric: concentration at 10 days
Answer format: value, then unit.

Prompt: I would be grateful if you could share the reported concentration at 10 days for C#C[C@]1(COC(=O)CCCCCCCCC)O[C@@H](n2cnc3c(N)nc(F)nc32)C[C@@H]1OC(=O)CCCCCCCCC .
Completion: 0.251 ng/mL

###

assay_method_text: Example 18 cynomolgus monkey PK study (SC and IM)
Assay type: in vivo, cynomolgus monkeys
measurement_setup: male, cynomolgus monkey, plasma, sc, 20 mg/kg, SC 20 mg/kg equivalent of EFdA; Monkey 1002; 0.208 days; read-out: Example 18 plasma concentrations
metric: concentration at 0.208 days
Answer format: value, then unit.

Prompt: I would be grateful if you could share the reported concentration at 0.208 days for C#C[C@]1(COC(=O)CCCCCCCCC)O[C@@H](n2cnc3c(N)nc(F)nc32)C[C@@H]1OC(=O)CCCCCCCCC [Example 18] .
Completion: 7.99 ng/mL

Origin of measurements: patent US12240853B2
